# Tested system: human Claudin18.2 (human, UniProt P56856-2 1-261)
# Experiment summary: cell-based or functional assay
Recorded measurements of ADCC Max killing rate %, Ba/F3-Claudin18.2 target cells, one per entry
Write down the numeric answer in % and omit the unit.

Completed entries (count: 2):
>>> assay_result("humanized antibody 1E9.2-hz17 (antibody, human IgG1, kappa, V domains shown, Human IgG1 / kappa constant regions) VH: EVQLVESGGGLVKPGGSLRLSCAASGFSFSNSAMSWVRQAPGKGLEWVSTISSGDSYTYYADSVKGRFTISRDNAKNSLYLQMNSLRAEDTAVYYCARQGYGNALDYWGQGTLVTVSS VL: DIVMTQTPLSLPVTPGEPASISCKSSQSLLQSGNGKNYLTWYLQKPGQSPQLLIYWSSTRESGVPDRFSGSGSGTDFTLKISRVEAEDFGVYYCQNDYYYPLTFGGGTKVEIKR")
59.6
>>> assay_result("IMAB362 (antibody, V domains shown) VH: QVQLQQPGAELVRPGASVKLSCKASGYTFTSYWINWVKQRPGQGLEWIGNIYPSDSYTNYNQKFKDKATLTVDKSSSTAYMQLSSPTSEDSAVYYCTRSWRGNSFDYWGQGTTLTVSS VL: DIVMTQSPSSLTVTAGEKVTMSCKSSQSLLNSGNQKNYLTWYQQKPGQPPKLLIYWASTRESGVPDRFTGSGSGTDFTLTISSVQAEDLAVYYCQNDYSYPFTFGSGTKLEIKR")
54.2

Please turn your attention to the following entry.
Read the entry chimeric antibody 1E9.2-hz00 (antibody, human IgG1, kappa, V domains shown, Mouse variable regions on human IgG1 / kappa constant regions; expressed in Expi293F; also called 1E9.2 chimeric antibody) VH: EVMLVESGGGLVKPGGSLKLSCAASGFSFSNSAMSWVRQTPEKRLEGVATISSGDSYTYYPDSVKGRFTISRDNAKNSLYLQMSSLRSEDTAVYYCARQGYGNALDYWGQGTSVTVSS VL: DIVMTQSPSSLTVTAGEKVTMSCKSSQSLLNSGNQKNYLTWYQQKPGQPPKLLIYWSSTRESGVPDRFTGSGSGTDFTLTISSVQAEDLAVYYCQNDYYYPLTFGAGTKLELKR and write its reported ADCC Max killing rate %, Ba/F3-Claudin18.2 target cells.
59.8
